Cited source for all entries: PubChem BioAssay

experiment: probe aInhba binding on compound microarray – biochemical, small-molecule microarray, 635/667 nm fluorescence, primary screen (AID 1148); conditions: higher = more signal;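 also: score merges 667nm spot fluorescence with signal-to-noise for antibody binding to printed compounds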
endpoint.name: composite z-score

Worked examples, 5 molecules total:
• Cc1ccc(N2C(=O)c3ccccc3[C@@H](C(=O)NC(C)C)[C@@H]2c2ccc(CO)cc2)nc1 = -0.104
• CC1CC/C=C\[C@H]2OC34C=CCN(CCN5CCOCC5)C(=O)[C@H]3N(CCCCCO)C(=O)[C@@H]4C2C(=O)O1 (some centres undefined) = -0.327
• COc1ccc(C(O)C2C=CC3C(=O)N(c4ccccc4)C(=O)C3N2Nc2ccccc2)c2ccccc12 (centres undefined) = 0.382
• CCCCC(=O)N(Cc1ccccc1F)[C@@H]1CC(C(=O)NCCO)=C[C@H](Oc2c(I)cc(CO)cc2OC)[C@H]1O = 0.0541
• O=c1cccc(-c2ccc3ccccc3c2)o1 = -0.025

For the molecule shown here, O=P(NCC1(CC2(c3ccccc3)CO2)CC1)(c1ccccc1)c1ccccc1 (centres undefined) , give the reported composite z-score.
-0.0448

For the molecule shown here, CCCC[C@H]1OB(O)C[C@H]2C1=C(COc1ccccc1)C[C@H]1C(=O)N(Cc3ccccc3)C(=O)[C@H]12 , give the reported composite z-score.
-0.0136

For the molecule shown here, C=CC[C@@]1(C(=O)NCCN2CCOCC2)N=C(c2ccc(OCCCO)cc2)O[C@@H]1c1ccccc1CN=[N+]=[N-] , give the reported composite z-score.
-0.197

For the molecule shown here, CN(C)CCCCCCNC(=O)[C@@H]1C[C@@H]2C(=O)NCC(=O)N2[C@@H]1c1cccc(OCCO)c1 , give the reported composite z-score.
0.105

----------
assay: JC-1 mitochondrial signal, unstimulated MM1S myeloma – cell-based, JC-1 fluorescence, 24 h, 100 nL compound, profiling panel (AID 1170); conditions: MM1S mitochondrial potential, higher = more signal; also: test concentration not given here
Reported values of z-score for individual entries
Note: the reply should be a number with no unit written.

Worked examples, 2 molecules total:
* CCCCC(=O)N(Cc1ccccc1F)[C@@H]1CC(C(=O)NCCO)=C[C@H](Oc2c(I)cc(CO)cc2OC)[C@H]1O | -0.0648
* COCCOC(=O)N1C(=O)[C@@]2(c3cc(C#CCCO)ccc31)[C@H](c1ccc(O)cc1)N1[C@H](c3ccccc3)[C@H](c3ccccc3)OC(=O)[C@H]1[C@@H]2C(=O)N1CCCCCCC1 | 0.271

For the molecule shown here, CN(C)CCCC[C@@H]1NC(=O)[C@@H]2C[C@H](C(=O)NCc3ccc(F)cc3)[C@H](c3cccc(OCCO)c3)N2C1=O , give the reported z-score.
-0.749

----------
molecular target: Luciferin 4-monooxygenase (Photinus pyralis) (UniProt P08659); assay: inhibition of purified Photinus pyralis luciferase – biochemical, luminescence, purified enzyme, 2006 set, primary screen (AID 1141); conditions: purified firefly luciferase, SteadyGlo luminescence, 30 min; higher = more signal, called active from +8 up or from −8 down;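 also: cell-free assay with purified firefly luciferase at 100 ng per well in PBS; test concentration not given here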
Sequence (P08659 whole entry, looked up): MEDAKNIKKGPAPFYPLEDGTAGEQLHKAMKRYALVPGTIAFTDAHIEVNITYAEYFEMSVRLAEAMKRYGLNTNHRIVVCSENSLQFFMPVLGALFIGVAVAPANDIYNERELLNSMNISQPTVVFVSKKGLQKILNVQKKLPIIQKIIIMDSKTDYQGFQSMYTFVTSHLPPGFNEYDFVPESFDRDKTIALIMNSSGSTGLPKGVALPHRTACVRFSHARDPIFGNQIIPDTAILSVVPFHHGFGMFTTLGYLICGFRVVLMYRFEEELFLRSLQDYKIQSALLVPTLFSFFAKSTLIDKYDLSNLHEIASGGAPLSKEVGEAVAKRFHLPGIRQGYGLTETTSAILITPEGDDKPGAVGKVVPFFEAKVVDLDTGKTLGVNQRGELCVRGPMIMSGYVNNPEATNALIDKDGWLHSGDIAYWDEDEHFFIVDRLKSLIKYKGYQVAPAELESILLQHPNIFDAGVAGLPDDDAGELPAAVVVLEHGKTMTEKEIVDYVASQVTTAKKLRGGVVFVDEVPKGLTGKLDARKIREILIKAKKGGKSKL
Outcome: Y for z-score of at least 0.4; N for anything lower.

Would you please look over these solved cases?
• CCCNC(=O)[C@@]1(C)c2ccccc2C(=O)N(Cc2cc(F)cc(C(F)(F)F)c2)[C@H]1c1ccc(CO)cc1 = Y
• O=[N+]([O-])c1ccc(C[n+]2ccc(CCCO)cc2)o1 = N
• CC(=O)N1Cc2ccccc2C[C@@]2(N=C(c3ccc(OCCCO)cc3)O[C@H]2c2ccccc2)C1=O = N
• CCOC1=C2C(c3ccc(C)cc3)N(S(=O)(=O)c3ccc(C)cc3)CC2n2c(=O)n(-c3ccccc3)c(=O)n2C1 (stereo not drawn) = Y
• O=C(NCC(F)(F)F)[C@@H]1c2ccccc2C(=O)N(Cc2ccccc2)[C@H]1c1ccc(CO)cc1 = N
• CCCC[C@@H]1C[C@H]1[C@@H](NC(=O)c1ccccc1)c1ccccc1 = Y

Now take the following compound into account.
Could you tell me if the measured z-score of C=C(CCCC)C(=O)CC[C@H](OC(=O)c1ccccc1-c1ccccc1C(=O)O)c1ccc(CO)o1 reaches 0.4 or more?
N
